Target: recombinant IRAK-4 kinase (Homo sapiens, UniProt Q9NWZ3)
Sequence (Q9NWZ3 whole entry): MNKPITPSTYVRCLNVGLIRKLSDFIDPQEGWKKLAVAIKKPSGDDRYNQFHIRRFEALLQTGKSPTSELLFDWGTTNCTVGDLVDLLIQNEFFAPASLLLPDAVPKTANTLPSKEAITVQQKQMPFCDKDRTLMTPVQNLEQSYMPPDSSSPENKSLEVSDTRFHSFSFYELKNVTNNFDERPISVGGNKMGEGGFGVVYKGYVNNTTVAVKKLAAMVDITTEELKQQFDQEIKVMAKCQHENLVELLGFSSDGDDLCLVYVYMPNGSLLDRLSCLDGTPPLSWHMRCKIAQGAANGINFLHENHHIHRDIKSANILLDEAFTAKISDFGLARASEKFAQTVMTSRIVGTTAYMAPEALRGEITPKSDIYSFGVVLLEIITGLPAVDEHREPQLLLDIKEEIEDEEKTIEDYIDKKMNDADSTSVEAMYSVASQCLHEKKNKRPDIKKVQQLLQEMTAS
Assay: IRAK-4 Biochemical Assay (TR-FRET)
Conditions: 30 min pre-incubation, 100 nM Biotin Histone H3, 20 μM ATP, read-out: IC50 values for IRAK4 activity
Structures can show the parent of a compound that is named as a salt.
Listed molecules paired with reported IC50

Examples with answers:
INSERT INTO assay_data (molecule, measurement) VALUES
  ('Cn1cc2cc(NC(=O)c3coc(-c4ccnc(Cl)c4)n3)c(N3CCCCC3)cc2n1 [Example 15, hydrochloride]', '< 50 nM'),
  ('Cc1cc(-c2ccc(C(=O)Nc3cc4cn(C)nc4cc3N3CCCC(O)C3)o2)ccn1 (centres unmarked)', '< 50 nM'),
  ('Cc1cc(-c2nc(C(=O)Nc3cc4cnn(C)c4cc3N3CCC(O)CC3)co2)cc(C)n1', '< 50 nM');

input: For Cc1cc(-c2nc(C(=O)Nc3cc4c(C)nn(C)c4cc3N3CCC(CO)CC3)co2)ccn1 , what is its reported IC50?
output: < 50 nM

input: IC50 for Cc1cc(-c2nc(C(=O)Nc3cc4cn(C)nc4cc3N3CCC(O)CC3)co2)ccn1 ?
output: < 50 nM

input: // query IC50 value for entry Cn1ncc2cc(NC(=O)c3cccc(N4CC[C@H](O)C4)n3)c(C3CC3)cc21
output: > 100 nM

input: I would be grateful if you could share the reported IC50 for Cc1cc(-c2nc(C(=O)Nc3cc4c(C)nn(C)c4cc3N3CCCCC3)co2)ccn1 .
output: < 50 nM

input: For the molecule shown here, C[C@H](O)Cn1cc(-c2cccc(C(=O)Nc3cc4cn(C)nc4cc3C3CC3)n2)cn1 , give the reported IC50.
output: < 50 nM

input: Find the recorded IC50 belonging to Cc1cc(-c2nc(C(=O)Nc3cc4cn(C)nc4cc3-c3cccc(F)c3)co2)ccn1 and report it.
output: < 50 nM

input: Could you share which IC50 value was measured for Cc1cc(-c2nc(C(=O)Nc3cc4cnn(C)c4cc3N3CCC3)co2)ccn1 ?
output: > 100 nM

input: Need IC50 of COc1ccc(-c2nc(C(=O)Nc3cc4cn(C)nc4cc3N3CCCCC3)co2)cn1 , thanks.
output: < 50 nM

input: If you can, please state the reported IC50 value of Cc1cc(-c2nc(C(=O)Nc3cc4cn(C)nc4cc3N3CCC(N)CC3)co2)ccn1 [Example 109, hydrochloride] .
output: < 50 nM

input: Which measured IC50 value corresponds to Cn1ncc2cc(NC(=O)c3coc(-c4ccnc(N)c4)n3)c(N3CCC(CO)CC3)cc21 [Example 99, hydrochloride] ?
output: < 50 nM
